Hi there, I'd appreciate the recorded IC50 for every entry that follows.
Target: Murine PKD1 kinase domain (Mus musculus)
Construct: hexahistidine (pFastBac HTb leader) (N)
Sequence (Q62101 with tags, fused parts or gaps R683W): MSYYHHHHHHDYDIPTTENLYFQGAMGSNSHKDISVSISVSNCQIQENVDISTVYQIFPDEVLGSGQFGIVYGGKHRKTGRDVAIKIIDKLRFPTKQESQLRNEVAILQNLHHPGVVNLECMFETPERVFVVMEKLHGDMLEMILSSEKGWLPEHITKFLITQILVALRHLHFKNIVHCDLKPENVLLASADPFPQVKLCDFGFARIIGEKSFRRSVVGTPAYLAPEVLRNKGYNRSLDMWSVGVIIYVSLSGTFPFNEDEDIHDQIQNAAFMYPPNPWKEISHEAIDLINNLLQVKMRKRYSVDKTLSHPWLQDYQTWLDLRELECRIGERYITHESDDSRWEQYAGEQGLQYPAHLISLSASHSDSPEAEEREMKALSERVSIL
Test: PKD1 (Murine Kinase Domain) Enzyme Activity Assay (IMAP fluorescence polarisation)
Conditions: 10 μM ATP, 60 minutes, room temperature

Solved cases (5 shown):
[[record]]
smi = "CN(C)CCNC(=O)c1cccc(-c2cnc(N)c(-c3cccc4cnccc34)c2)c1"
subject_of_test = "Murine PKD1 kinase domain (Mus musculus)"
metric = "IC50"
result = "1 to 10 µM"

[[record]]
smi = "CN(C)CCNC(=O)c1cccc(-c2cnc(N)c(-c3cccs3)c2)c1"
subject_of_test = "Murine PKD1 kinase domain (Mus musculus)"
metric = "IC50"
result = "< 1 µM"

[[record]]
smi = "CN(C)CCNC(=O)c1cccc(-c2cnc(N)c(-c3ccc(Oc4ccccc4)cc3)c2)c1"
subject_of_test = "Murine PKD1 kinase domain (Mus musculus)"
metric = "IC50"
result = "< 1 µM"

[[record]]
smi = "CN(C)CCNC(=O)c1cccc(-c2cnc(N)c(-c3ccccc3OCc3ccccc3)c2)c1"
subject_of_test = "Murine PKD1 kinase domain (Mus musculus)"
metric = "IC50"
result = "1 to 10 µM"

[[record]]
smi = "CNc1ncc(-c2cccc(C(=O)NCCN(C)C)c2)cc1-c1cccc(OC)c1"
subject_of_test = "Murine PKD1 kinase domain (Mus musculus)"
metric = "IC50"
result = "< 1 µM"


Lab note: each compound below needs its IC50 filled in.
1. CN(C)CCNC(=O)c1cccc(-c2cnc(N)c(-c3ccc4c(c3)OCO4)c2)c1
2. NC(=O)c1cccc(-c2cnc(N)c(-c3cccc4ncccc34)c2)c1
3. COc1cc(-c2nc(-c3cccc(C(=O)NCCN(C)C)c3)cnc2N)ccc1F

Result:
< 1 µM
1 to 10 µM
< 1 µM

Ask: Query IC50 for CN(C)CCNC(=O)c1cccc(-c2cnc(N)c(-c3ccc4cc(O)ccc4c3)n2)c1
Result: < 1 µM
